- run description: Plasma progesterone level after intraperitoneal injection
- Assay type: in vivo, nude mice
- conditions used: nude, mouse, plasma, ip, 15 mg/kg

>  <compound>
CC(=O)[C@H]1CC[C@H]2[C@@H]3CCC4=CC(=O)CC[C@]4(C)[C@H]3CC[C@]12C [progesterone]

>  <Tmax>
~1 h

$$$$
